TEST_SETTINGS: in methanol, 288.15 K
MEASUREMENT_NAME: solubility (mole fraction)

{"COMPOUND": "Cc1nc2n(c(=O)c1CCN1CCC(c3noc4cc(F)ccc34)CC1)CCCC2O (stereo unspecified)", "VALUE_REPORTED": 0.000103}

---

TEST_SETTINGS: in THF, 323.15 K
MEASUREMENT_NAME: solubility (mole fraction)

{"COMPOUND": "Cc1nc2n(c(=O)c1CCN1CCC(c3noc4cc(F)ccc34)CC1)CCCC2O (stereo unspecified)", "MEASUREMENT_NAME": "solubility (mole fraction)", "VALUE_REPORTED": 0.00312}
